Values compiled from patent US20110104055A1.

TEST_SYSTEM: Aβ 1-42 fibrils (Homo sapiens, UniProt P05067)
Construct: purchased Bachem Inc
Sequence (P05067 672-713): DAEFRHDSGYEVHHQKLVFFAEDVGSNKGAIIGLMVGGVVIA
METHOD_SUMMARY: Congo red binding assay, Aβ 1-42 fibrils (Example 11)
Type: biochemical
MEASUREMENT_CONTEXT: Aβ:test compound wt/wt ratio 1:1; 3-day incubation
Doc: threshold 70% (exclusive). Items with % Inhibition Aβ (result ± S.D.), Congo red binding beneath it return Criterion met; others return Criterion not met.

O=C(Nc1ccc(O)c(O)c1)c1cc(O)c(O)c(F)c1 ... Criterion not met
O=C(O)CN(CCN(CC(=O)O)CC(=O)O)CC(=O)O ... Criterion met
O=C(Nc1ccc(O)c(O)c1)c1ccc(O)c(O)c1F ... Criterion not met

Qu. # TODO verify % Inhibition Aβ (result ± S.D.), Congo red binding < 70% strictly for this compound: O=C(Nc1ccc(O)c(O)c1)c1cc(O)c(O)cc1F
Ans. Criterion not met
